Quick reference: pIC50 of the listed items.
Test system: UM-UC-9 cells
METHOD_DESCRIPTION: Direct cell counting dose-response proliferation assay
Format: cell-based, human
STATED_CONDITIONS: Homo sapiens, UM-UC-9; read-out: calculated IC50, proliferation
Note on pIC50: it is the negative log10 of concentration, concentration in mol/L.

{"COMPOUND": "CC1=C2C=C(C(=O)N[C@@H](C)c3ccc(C(C)(C)C)cc3)C=CC2N(Cc2ccc(Cl)c(O[C@@H](C)C(=O)O)c2)C1C (some centres unmarked)", "pIC50": 7.80}

Query: Identify measured pIC50 corresponding to O=C(Nc1ccncc1)c1cc([N+](=O)[O-])ccc1Cl [T0070907, 2-Chloro-5-nitro-N-4-pyridinyl-benzamide]
Result: 7.41

---

Test system: PPARG-activated bladder cancer cell lines
METHOD_DESCRIPTION: Proliferation assays in PPARG-activated bladder cancer cell lines
Type: cell-based, human
STATED_CONDITIONS: 100 nM-500 nM
REPORTED_METRIC: sensitivity of cell lines

{"COMPOUND": "Cc1c(C)n(Cc2ccc(-c3ccccc3C(=O)O)cc2)c2ccc(C(=O)N[C@@H](C)c3ccc(C(C)(C)C)cc3)cc12", "REPORTED_METRIC": "sensitivity of cell lines", "EXPERIMENTAL_VALUE": "not sensitive"}
{"COMPOUND": "O=C(Nc1ccccc1)c1cc([N+](=O)[O-])ccc1Cl", "REPORTED_METRIC": "sensitivity of cell lines", "EXPERIMENTAL_VALUE": "not sensitive"}
{"COMPOUND": "O=C(Nc1ccncc1)c1cc([N+](=O)[O-])ccc1Cl [T0070907, 2-Chloro-5-nitro-N-4-pyridinyl-benzamide]", "REPORTED_METRIC": "sensitivity of cell lines", "EXPERIMENTAL_VALUE": "preferentially sensitive"}
{"COMPOUND": "CC1=C2C=C(C(=O)N[C@@H](C)c3ccc(C(C)(C)C)cc3)C=CC2N(Cc2ccc(Cl)c(O[C@@H](C)C(=O)O)c2)C1C (stereo partly shown)", "REPORTED_METRIC": "sensitivity of cell lines", "EXPERIMENTAL_VALUE": "preferentially sensitive"}

---

Tested on: UM-UC-9 cells
METHOD_DESCRIPTION: Direct cell counting dose-response proliferation assay
Format: cell-based, human
REPORTED_METRIC: effect on cell proliferation compared with DMSO control

{"STRUCTURE_AS_SMILES": "Cc1c(C)n(Cc2ccc(-c3ccccc3C(=O)O)cc2)c2ccc(C(=O)N[C@@H](C)c3ccc(C(C)(C)C)cc3)cc12", "EXPERIMENTAL_VALUE": "no significant effects"}
{"STRUCTURE_AS_SMILES": "O=C(Nc1ccccc1)c1cc([N+](=O)[O-])ccc1Cl", "EXPERIMENTAL_VALUE": "no significant effects"}

---

Test system: PPARG-activated pancreatic and colorectal cancer cell lines
METHOD_DESCRIPTION: Kinetic proliferation assay in pancreatic and colorectal cancer cell lines
Type: cell-based
STATED_CONDITIONS: 500 nM

{"COMPOUND": "CC1=C2C=C(C(=O)N[C@@H](C)c3ccc(C(C)(C)C)cc3)C=CC2N(Cc2ccc(Cl)c(O[C@@H](C)C(=O)O)c2)C1C (stereo partly shown) [SR10221]", "EXPERIMENTAL_SYSTEM": "PPARG-activated pancreatic and colorectal cancer cell lines", "sensitivity of cell lines": "preferentially sensitive"}
{"COMPOUND": "Cc1c(C)n(Cc2ccc(-c3ccccc3C(=O)O)cc2)c2ccc(C(=O)N[C@@H](C)c3ccc(C(C)(C)C)cc3)cc12 [SR2595]", "EXPERIMENTAL_SYSTEM": "PPARG-activated pancreatic and colorectal cancer cell lines", "sensitivity of cell lines": "not sensitive"}
{"COMPOUND": "O=C(Nc1ccccc1)c1cc([N+](=O)[O-])ccc1Cl [GW9662]", "EXPERIMENTAL_SYSTEM": "PPARG-activated pancreatic and colorectal cancer cell lines", "sensitivity of cell lines": "not sensitive"}
{"COMPOUND": "O=C(Nc1ccncc1)c1cc([N+](=O)[O-])ccc1Cl [T0070907, 2-Chloro-5-nitro-N-4-pyridinyl-benzamide]", "EXPERIMENTAL_SYSTEM": "PPARG-activated pancreatic and colorectal cancer cell lines", "sensitivity of cell lines": "preferentially sensitive"}

FYI, the data here is from patent US11896678B2.
